Details: in methanol, 308.15 K
quantity name: solubility (mole fraction)

Given the entry O=C1c2ccccc2C(=O)N1O , report its measured solubility (mole fraction).
0.00903

====

Details: in 2-methoxyethanol, 318.15 K
quantity name: solubility (mole fraction)
Please reply with the value in numeric form only.

Given the entry O=C1c2ccccc2C(=O)N1O , report its measured solubility (mole fraction).
0.056

====

Conditions: in methyl acetate, 288.15 K
quantity name: solubility (mole fraction)
Please reply with the value in numeric form only.

Given the entry O=C1c2ccccc2C(=O)N1O , report its measured solubility (mole fraction).
0.00394

====

Conditions: in n-propyl acetate, 303.15 K
quantity name: solubility (mole fraction)
Please reply with the value in numeric form only.

Given the entry O=C1c2ccccc2C(=O)N1O , report its measured solubility (mole fraction).
0.00381
